Let's go through some Ki measurements on Cannabinoid receptor 1 (Rattus norvegicus) together.
Sequence (P20272 whole entry): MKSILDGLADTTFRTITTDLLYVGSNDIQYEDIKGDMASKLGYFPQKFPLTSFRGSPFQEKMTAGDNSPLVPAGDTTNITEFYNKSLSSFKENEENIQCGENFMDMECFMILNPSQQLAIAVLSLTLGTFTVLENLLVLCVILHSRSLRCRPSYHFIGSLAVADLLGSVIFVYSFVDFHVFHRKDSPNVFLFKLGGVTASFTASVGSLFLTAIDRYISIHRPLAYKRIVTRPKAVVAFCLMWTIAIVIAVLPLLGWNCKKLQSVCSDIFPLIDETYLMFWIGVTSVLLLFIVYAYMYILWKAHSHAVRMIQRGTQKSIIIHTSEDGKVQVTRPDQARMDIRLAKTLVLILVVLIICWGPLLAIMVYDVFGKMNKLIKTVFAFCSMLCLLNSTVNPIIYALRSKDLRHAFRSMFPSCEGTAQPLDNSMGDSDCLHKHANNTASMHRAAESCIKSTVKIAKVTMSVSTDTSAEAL
One number for each entry, in nM.

May I ask what Ki has been recorded for `Cc1c(C(=O)NN2CCCCC2)nn(-c2ccc(Cl)cc2Cl)c1-c1ccc(C2CCC2)cc1.Cl` ?
7

May I ask what Ki has been recorded for `CCc1c(C(=O)NN2CCCCC2)nn(-c2ccc(Cl)cc2Cl)c1-c1ccc(C2CC2)cc1` ?
4

For every record below, what is its Ki?
1. COc1c(C(=O)NN2CCCCC2)nn(-c2ccc(Cl)cc2Cl)c1-c1ccc(C2CC2)cc1
2. Cc1c(C(=O)NN2CCCCC2)nn(-c2ccc(F)cc2F)c1-c1ccc(C2CC2)cc1
3. CCc1c(C(=O)NN2CCCC2)nn(-c2ccc(Cl)cc2Cl)c1-c1ccc(C2CC2)cc1

1: 3; 2: 34; 3: 4

* * *

Let's go through some Ki measurements on Cannabinoid receptor 1 (Rattus norvegicus) together.
Answers are plain numbers, in nM.

The following compounds have reported results that may help.
May I ask what Ki has been recorded for `O=C(NN1CCCCC1)c1cc(-c2ccc(C3CC3)cc2)n(-c2ccc(Cl)cc2Cl)n1` ?
16

May I ask what Ki has been recorded for `Cc1c(C(=O)NN2CCCCC2)nn(-c2ccc(F)cc2Cl)c1-c1ccc(C2CC2)cc1` ?
8

May I ask what Ki has been recorded for `Cc1c(C(=O)NN2CCCCC2)nn(-c2ccc(Cl)cc2Cl)c1-c1ccc(C2CCCCC2)cc1` ?
13

May I ask what Ki has been recorded for `Cc1c(C(=O)NN2CCCCC2)nn(-c2ccccc2)c1-c1ccc(C2CC2)cc1` ?
66

May I ask what Ki has been recorded for `Cc1c(C(=O)NN2CCCCC2)nn(-c2ccccc2F)c1-c1ccc(C2CC2)cc1` ?
11

May I ask what Ki has been recorded for `Cc1c(C(=O)NN2CCCCC2)nn(-c2ccc(Cl)cc2Cl)c1-c1ccc(C2CCCC2)cc1` ?
15

For every record below, what is its Ki?
1. Cc1c(C(=O)NN2CCCCC2)nn(-c2ccccc2Cl)c1-c1ccc(C2CC2)cc1
2. Cc1c(C(=O)NN2CCCCC2)nn(-c2ccc(Br)cc2Cl)c1-c1ccc(C2CC2)cc1

[4, 3]

* * *

Test system: Mus musculus
EXPERIMENT NOTES: Inhibition of WIN-55212-2-induced hypothermia in po dosed CD1 mouse assessed as rectal temperature administered 15 mins prior to WIN-55212 challenge measured after 45 mins post-induction
Assay type: functional
Exercise: state measured ED50 for each of the molecules provided.

The following molecules have reported results that may help.
May I ask what ED50 has been recorded for `Cc1c(C(=O)NN2CCCCC2)nn(-c2ccc(Br)cc2Cl)c1-c1ccc(C2CC2)cc1` ?
0.22 mg/kg

May I ask what ED50 has been recorded for `Cc1c(C(=O)NN2CCCCC2)nn(-c2ccc(Cl)cc2Cl)c1-c1ccc(Cl)cc1` ?
0.41 mg/kg

May I ask what ED50 has been recorded for `CCc1c(C(=O)NN2CCCC2)nn(-c2ccc(Cl)cc2Cl)c1-c1ccc(C2CC2)cc1` ?
0.84 mg/kg

May I ask what ED50 has been recorded for `Cc1c(C(=O)NN2CCCCC2)nn(-c2ccc(Cl)cc2Cl)c1-c1ccc(C2CCC2)cc1.Cl` ?
4 mg/kg

For every record below, what is its ED50?
1. Cc1c(C(=O)NN2CCCCC2)nn(-c2ccc(Cl)cc2Cl)c1-c1ccc(C2CCCC2)cc1
2. CCc1c(C(=O)NN2CCCCC2)nn(-c2ccc(Cl)cc2Cl)c1-c1ccc(C2CC2)cc1
3. Cc1c(C(=O)NN2CCCCC2)nn(-c2ccc(Cl)cc2Cl)c1-c1ccc(C2CCCCC2)cc1

1. ≥ 3 mg/kg
2. 0.84 mg/kg
3. > 3 mg/kg
